system tested: Trace amine-associated receptor 1 (Homo sapiens) (UniProt Q96RJ0)
Sequence (Q96RJ0 whole entry, looked up): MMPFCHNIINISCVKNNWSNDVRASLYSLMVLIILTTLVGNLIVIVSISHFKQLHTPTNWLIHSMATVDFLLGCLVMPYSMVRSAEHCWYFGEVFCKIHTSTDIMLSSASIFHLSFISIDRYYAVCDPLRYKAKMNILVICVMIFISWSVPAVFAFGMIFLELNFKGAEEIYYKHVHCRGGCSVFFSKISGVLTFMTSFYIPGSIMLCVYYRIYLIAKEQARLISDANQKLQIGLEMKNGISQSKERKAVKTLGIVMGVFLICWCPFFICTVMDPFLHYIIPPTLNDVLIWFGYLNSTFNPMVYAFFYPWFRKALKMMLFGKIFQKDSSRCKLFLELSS
procedure text: blockers of beta-PEA-driven TAAR1 calcium signal – Fluo-8 calcium fluorescence, CHO RD-HGA16 cells, primary screen (AID 624466);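 note: 0% = DMSO plus EC80 beta-PEA response and 100% = DMSO alone without agonist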
assay context: CHO RD-HGA16 TAAR1, Fluo-8 calcium fluorescence, antagonist; at 3 µM; stronger effect = higher value
The campaign covered roughly 360,000 compounds. About 5,400 (1.5%) were called active. Many of the other results were omitted from the sample, so actives are more common in it than they were.
experimental endpoint: inhibition (%)
Supply the numeric figure in %, leaving out any unit text.

Here's what some known entries look like.
molecule	system tested	observed measurement
CC(=O)Nc1ccc(N2CCOCC2)c(C(=O)Nc2cccc(C)c2)c1	Trace amine-associated receptor 1 (Homo sapiens) (UniProt Q96RJ0)	-5.97
COC(=O)c1cc(NC(=O)c2cccnc2)ccc1N1CCOCC1	Trace amine-associated receptor 1 (Homo sapiens) (UniProt Q96RJ0)	-22
N#C/C(=C/c1ccc(N2CCCCC2)o1)C(=O)NCCc1c[nH]c2ccccc12	Trace amine-associated receptor 1 (Homo sapiens) (UniProt Q96RJ0)	57.6

Input: Quick check: inhibition of O=C(Nc1ccccc1)C1CC(=O)n2c(nc3ccccc32)N1 (stereo not given) ?
Output: -8.36

Input: Quick check: inhibition of CCCNC(=O)C1CC(=O)N(c2ccc(OCC(=O)Nc3cccc(C)c3C)cc2)C1 (stereo not given) ?
Output: -17.9

* * *

system tested: Trace amine-associated receptor 1 (Homo sapiens)
procedure text: blockers of beta-PEA-driven TAAR1 calcium signal – Fluo-8 calcium fluorescence, CHO RD-HGA16 cells, primary screen (AID 624466);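 note: 0% = DMSO plus EC80 beta-PEA response and 100% = DMSO alone without agonist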
assay context: CHO RD-HGA16 TAAR1, Fluo-8 calcium fluorescence, antagonist; at 3 µM; stronger effect = higher value
The campaign covered roughly 360,000 compounds. About 5,400 (1.5%) were called active. The sample holds actives, similar compounds and a random draw of the others, so the mix is not that of the screen.
experimental endpoint: inhibition (%)
Supply the numeric figure in %, leaving out any unit text.

molecule	unit abbreviation	observed measurement
CC(=O)C[C@@H](O)CC(=O)[C@H]1OC(=O)CCCCCCc2ccccc21	%	6.02
CC(C)c1c(C(=O)N/N=C/c2ccccc2C(=O)O)nnn1-c1nonc1N	%	-11.8
Nc1nonc1-n1nnc(C(=O)N/N=C/C2CCCCC2)c1-c1ccccc1	%	-20.6
O=C(Cn1cnc2ccccc2c1=O)NCC1COc2ccccc2O1 (stereo unspecified)	%	-0.58
CCOCCCN1C(=O)CN(C2CCCCC2)C(=O)C1c1ccc(OCC)c(OC)c1 (stereo unspecified)	%	11.2

Input: Quick check: inhibition of `CCCCn1c(SCc2ncc(-c3ccccc3)o2)nc2cc(S(N)(=O)=O)ccc21` ?
Output: 63.4

Input: Quick check: inhibition of O=S1(=O)CC(N2CCN(Cc3ccccc3F)CC2)CN1Cc1cn(Cc2cccc(C(F)(F)F)c2)nn1 (stereo unspecified) ?
Output: -13

* * *

system tested: Trace amine-associated receptor 1 (Homo sapiens)
procedure text: blockers of beta-PEA-driven TAAR1 calcium signal – Fluo-8 calcium fluorescence, CHO RD-HGA16 cells, primary screen (AID 624466);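 note: 0% = DMSO plus EC80 beta-PEA response and 100% = DMSO alone without agonist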
assay context: CHO RD-HGA16 TAAR1, Fluo-8 calcium fluorescence, antagonist; at 3 µM; stronger effect = higher value
The campaign covered roughly 360,000 compounds. About 5,400 (1.5%) were called active. The full list was thinned out, with actives kept by preference.
experimental endpoint: inhibition (%)
Supply the numeric figure in %, leaving out any unit text.

molecule	unit abbreviation	inhibition
Cc1nc2ccc(NC(=O)N3CCC(c4ccccc4)C3)cc2nc1C (stereo not given)	%	-3.01

Input: Quick check: inhibition of `CC(=O)c1ccc(NC(=O)c2cc(-c3cccs3)on2)cc1` ?
Output: 5.25

Input: Quick check: inhibition of `COc1ccc(Br)cc1S(=O)(=O)N1CCN=C1C` ?
Output: -4.85

Input: Quick check: inhibition of `COc1ccc(S(=O)(=O)Nc2ccc3c(c2)C(=O)N([C@H](C)CO)C[C@H](C)[C@@H](CN(C)C)OCCCC[C@H](C)O3)cc1` ?
Output: -3.5

Input: Quick check: inhibition of `COC(=O)[C@]12C[C@H](CC(=O)NCCCCc3ccccc3)C(=O)N(Cc3ccc4c(c3)OCO4)C1=C[C@H](C(C)(C)C)O[C@@H]2C` ?
Output: -5.78

* * *

system tested: Trace amine-associated receptor 1 (Homo sapiens)
procedure text: blockers of beta-PEA-driven TAAR1 calcium signal – Fluo-8 calcium fluorescence, CHO RD-HGA16 cells, primary screen (AID 624466);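 note: 0% = DMSO plus EC80 beta-PEA response and 100% = DMSO alone without agonist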
assay context: CHO RD-HGA16 TAAR1, Fluo-8 calcium fluorescence, antagonist; at 3 µM
Hit rate of the full screen: of about 360,000 compounds, about 5,400 (1.5%) were called active.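 The calls were made as follows: active = inhibition above a per-plate cutoff, the mean inhibition of test compounds on that plate plus 3 SD (cut at about 49% in these data); inactive = the rest.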 The list comes from a sample in which actives are over-represented; it also holds close analogues and randomly drawn compounds.
Choose the fitting class; nothing outside active, inactive is accepted.

molecule	label value
COc1ccc(-c2nc3cnccn3c2NC(C)(C)CC(C)(C)C)cc1O	active

Input: Just curious, what result did CCOC(=O)C1(C)CCCN(C(=O)c2ccc(N(C)C)cc2)C1 (stereo unspecified) get here?
Output: inactive

Input: Just curious, what result did `COc1cc(OC)cc(-c2c(C#Cc3ccsc3)c3cc(-c4ccc(OC)cc4F)ccc3n2C)c1` get here?
Output: inactive

Input: Just curious, what result did CC1Cc2[nH][nH]c(=O)c2C(C2CC2)O1 (stereo unspecified) get here?
Output: inactive

Input: Just curious, what result did `Cc1cccn2cc(-c3cccc(S(=O)(=O)N4CCCCC4)c3)nc12` get here?
Output: inactive

Input: Just curious, what result did `C[C@H]1CN([C@@H](C)CO)S(=O)(=O)c2ccc(-c3cccc(F)c3)cc2O[C@@H]1CN(C)C` get here?
Output: inactive

Input: Just curious, what result did `CC(C)n1ncc2c(C(=O)NCc3ccccc3CN(C)C)cc(C3CC3)nc21` get here?
Output: inactive

Input: Just curious, what result did `COc1ccc(OCCNC(=O)c2cc(C3CC3)nc3c2cnn3C(C)C)cc1` get here?
Output: active

Input: Just curious, what result did `COc1cccc(/C=N/Nc2cc(C)nc(-c3ccccc3O)n2)c1O` get here?
Output: active

* * *

system tested: Trace amine-associated receptor 1 (Homo sapiens) (UniProt Q96RJ0)
procedure text: blockers of beta-PEA-driven TAAR1 calcium signal – Fluo-8 calcium fluorescence, CHO RD-HGA16 cells, primary screen (AID 624466);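 note: 0% = DMSO plus EC80 beta-PEA response and 100% = DMSO alone without agonist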
assay context: CHO RD-HGA16 TAAR1, Fluo-8 calcium fluorescence, antagonist; at 3 µM
Hit rate of the full screen: of about 360,000 compounds, about 5,400 (1.5%) were called active.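 The calls were made as follows: active = inhibition above a per-plate cutoff, the mean inhibition of test compounds on that plate plus 3 SD (cut at about 49% in these data); inactive = the rest.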 Shown is part of a subset that was picked to be rich in actives.
Choose the fitting class; nothing outside YES = active, NO = inactive is accepted.

# example entries with known answers
smiles notation	system tested	label value
COc1cccc(NC(=O)[C@H](Cc2c[nH]c3ccccc23)NC(=O)[C@@H]2Cc3ccccc3CN2)c1	Trace amine-associated receptor 1 (Homo sapiens) (UniProt Q96RJ0)	YES
O=C(Cn1cncn1)N/N=C/c1c2ccccc2cc2ccccc12	Trace amine-associated receptor 1 (Homo sapiens) (UniProt Q96RJ0)	NO
Cc1ccccc1S(=O)(=O)N1[C@@H](c2cccc(Cl)c2)C(C(=O)O)=CC[C@H]1c1ccc(Cl)cc1	Trace amine-associated receptor 1 (Homo sapiens) (UniProt Q96RJ0)	YES
COc1ccc(CNC(=O)[C@H](Cc2c[nH]c3ccccc23)NC(C)=O)cc1OC	Trace amine-associated receptor 1 (Homo sapiens) (UniProt Q96RJ0)	NO
CCCCCc1c(-c2ccc(OC)c(OC)c2)ncn1CCc1ccccc1OC	Trace amine-associated receptor 1 (Homo sapiens) (UniProt Q96RJ0)	YES
Cc1ccc([C@@H]2CC=C(C(=O)O)[C@H](c3cccc(Cl)c3)N2S(=O)(=O)c2ccc(C)cc2)cc1	Trace amine-associated receptor 1 (Homo sapiens) (UniProt Q96RJ0)	NO

Input: Just curious, what result did `COc1cccc(-c2cc(CNC(=O)[C@@H](Cc3ccccc3)NC(=O)[C@H]3O[C@@H](n4cnc(C(N)=O)n4)[C@H](O)[C@@H]3O)no2)c1` get here?
Output: NO

Input: Just curious, what result did `CCOc1ccc(CCN2C(=O)C(=O)N([C@@H](Cc3ccc(O)cc3)CN3CCC[C@H]3CN3C(=O)C(=O)NC[C@@H]3CC(C)C)C[C@@H]2Cc2ccccc2)cc1` get here?
Output: NO

* * *

# inhibition values compiled below
system tested: Trace amine-associated receptor 1 (Homo sapiens)
procedure text: blockers of beta-PEA-driven TAAR1 calcium signal – Fluo-8 calcium fluorescence, CHO RD-HGA16 cells, primary screen (AID 624466);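 note: 0% = DMSO plus EC80 beta-PEA response and 100% = DMSO alone without agonist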
assay context: CHO RD-HGA16 TAAR1, Fluo-8 calcium fluorescence, antagonist; at 3 µM; stronger effect = higher value
Screen size: about 360,000 compounds; about 5,400 (1.5%) were called active. What follows is part of a selection rich in actives, with near analogues and random picks from the rest.
Supply the numeric figure in %, leaving out any unit text.

Here's what some known entries look like.
compound	observed measurement
O=C(Nc1ccccc1-c1nnn(CC(=O)N2CCN(c3ccccc3)CC2)n1)c1cccs1	62
Cc1cc2nc3c(=O)[nH]c(=O)nc-3n(C[C@H](O)[C@H](O)[C@H](O)CO)c2cc1C	18.8

Input: Quick check: inhibition of COCCCn1cc(CN2CC(N(C)C)CS2(=O)=O)nn1 (configuration not stated) ?
Output: -29.3

Input: Quick check: inhibition of `O=C(CN1CCN(S(=O)(=O)c2cccc(Cl)c2)CC1)N1CCCCC1` ?
Output: 6.11

Input: Quick check: inhibition of `O=C(Nc1ccc(N2CCN(C(=O)C3CC3)CC2)cc1)c1cccs1` ?
Output: 16.4

Input: Quick check: inhibition of `COc1ccc(C(=O)Nc2cccc(NC(=O)c3ccc(OC)cc3OC)n2)c(OC)c1` ?
Output: 64.8

Input: Quick check: inhibition of CC1(C(=O)NCc2ccccc2)CSCC(=O)N1CCCN1CCOCC1 (configuration not stated) ?
Output: -18.5

Input: Quick check: inhibition of COc1ccc(C(=O)NC(C)CCc2ccccc2)c(OC)c1 (configuration not stated) ?
Output: -22.5

Input: Quick check: inhibition of `CCOC(=O)N1C(=O)C[C@](Sc2ccc(C)cc2)(C(=O)OC)[C@H]1c1ccccc1` ?
Output: 6.96

Input: Quick check: inhibition of `COc1ccc(CCNc2nc(C)cc(C)n2)cc1OC` ?
Output: -1.79

Input: Quick check: inhibition of `Cc1cc(N2CCN(C(=O)OC(C)(C)C)C[C@H]2C)ccc1N1CCN(Cc2ccccc2)[C@H](C)C1` ?
Output: 8.39

Input: Quick check: inhibition of `Cc1ccc(C2=CSC3=NS(=O)(=O)CCN23)cc1C` ?
Output: 10.5

Input: Quick check: inhibition of `CCc1nnc(NC(=O)CSc2nnnn2-c2cccc(C(C)=O)c2)s1` ?
Output: -22.1

Input: Quick check: inhibition of Cc1cc(C)nc(SC2CCCCC2NS(=O)(=O)c2ccc(Cl)cc2)n1 (configuration not stated) ?
Output: -8.5

Input: Quick check: inhibition of `O=C(COc1ccc(Cl)cc1)NCCSc1ccccc1` ?
Output: 0.81

Input: Quick check: inhibition of COC(=O)c1ccccc1SC1CC(=O)N(c2cccc(C)c2)C1=O (configuration not stated) ?
Output: -3.32

Input: Quick check: inhibition of `O=C(N[C@H]1CC[C@H](CC(=O)N2CCCCC2)O[C@@H]1CO)c1cccc(F)c1` ?
Output: 4.76

Input: Quick check: inhibition of `O=C(O)CSCc1ccc(C(=O)O)o1` ?
Output: 8.93

Input: Quick check: inhibition of `CCOC(=O)[C@]12CCCC=C1N(Cc1cccc3ccccc13)C(=O)[C@H](CC(=O)NCC13CC4CC(CC(C4)C1)C3)C2` ?
Output: -11.8
